Reported EC50 values are given for each entry in this list.
protocol: DPPH radical scavenging assay
study.conditions: ethanol, absorbance at 517 nm, 30 min; mean ± SEM, three experiments
Number in µM, nothing else.

// worked examples, EC50 included
molecule: C/C(=N\NC(N)=S)c1cc2ccc(O)c(O)c2oc1=O [T6]
measurement.units: µM
EC50: 17.9
//
molecule: C/C(=N\NC(N)=S)c1cc2cccc(O)c2oc1=O [T4]
measurement.units: µM
EC50: 28

Suppose we examine the molecule O=C1O[C@H]([C@@H](O)CO)C(O)=C1O [Ascorbic Acid, Ascorbic acid, reference compound] ; what EC50 value has been reported?
18.6

Then this molecule: C/C(=N\NC(N)=S)c1cc2cc(O)c(O)cc2oc1=O [T5]
7.1
